target: huCD4_1–32-YFP A17V (Homo sapiens, UniProt P01730, A17V); assay: CADA inhibition of huCD4_1–32-YFP secretion; format: cell-based; details: read-out: Secreted YFP IC50 (μM) Mean, HEK293T, CADA 48h
assay-metric: IC50

Value sought: IC50, system huCD4_1–32-YFP A17V (Homo sapiens, UniProt P01730, A17V), item C=C1CN(S(=O)(=O)c2ccc(C)cc2)CCCN(Cc2ccccc2)CCCN(S(=O)(=O)c2ccc(C)cc2)C1 [CADA, Cyclotriazadisulfonamide] . Result: > 50 µM

* * *

biological target: FL huCD4 L11A (Homo sapiens, UniProt P01730, L11A); assay: CADA down-modulation of cellular huCD4; assay type: cell-based; settings: read-out: Cellular huCD4 IC50 (μM) Mean, HEK293T, CADA 48h
assay-metric: IC50

For reference, reported IC50 for C=C1CN(S(=O)(=O)c2ccc(C)cc2)CCCN(Cc2ccccc2)CCCN(S(=O)(=O)c2ccc(C)cc2)C1 [CADA, Cyclotriazadisulfonamide] stands at 0.12 µM
